# Tested on: VEGFR2
# Construct: gene KDR
# APPLIED_CONDITIONS: concentration: 1 μM, replicates: in singlicate; n = 1
READOUT: %Inh
Returns: string containing the number followed by the unit.

COMPOUND	READOUT	OBSERVED_MEASUREMENT
COc1ccc(Nc2nccc(N3CCC(NC(=O)C(C)c4ccc(Cl)cc4)C3)n2)cc1 (stereo not drawn) [GSK1379735]	%Inh	0%

Problem: // returns reported %Inh for input CC(C)c1cc(-c2ccc3c(N)n[nH]c3c2)nc(N)n1 [GSK2250882]
Solution: 0%

Problem: // lookup %Inh for `COc1ccc(-c2coc3ccc(-c4nnc(C)o4)cc23)cc1`
Solution: 0%

Problem: What does the record list as %Inh for Cc1ccccc1Cn1ccn2c(=O)cc(N3CCOCC3)nc12 [GSK2269905] ?
Solution: 0%

---

As shown below, each of these compounds has a reported %Inh value.
# System: CLK2
# APPLIED_CONDITIONS: concentration: 1 μM, replicates: in singlicate; n = 1
Just the number please, in %, no unit attached.

Completed entries (count: 10):
COMPOUND	%Inh [%]
Cn1cncc1C(=O)NC1CCN(c2ccnc(Nc3ccc(F)cc3)n2)C1 (centres unmarked)	0
NS(=O)(=O)c1cccc(N/C=C2\C(=O)Nc3ccc(S(=O)(=O)Cc4c(Cl)cccc4Cl)cc32)c1	33
CNc1nc(-c2ccc3c(N)n[nH]c3c2)cc(N2C[C@@H](C(=O)NC3CCCCC3)OC[C@H]2C)n1	0
O=C(Nc1n[nH]c2cc(-c3ccsc3)ccc12)C1CC1	21
CSc1ccc(-c2nc3n(c2-c2ccncc2)CCC3)cc1	0
O=C(Nc1n[nH]c2nc(-c3cccs3)c(Br)cc12)C1CC1	0
O=C(Nc1n[nH]c2nc(-c3cccs3)c(Br)cc12)C1CCCC1	18
Cc1ccc(NC(=O)Nc2ccccc2)cc1-c1ccc(C(=O)Nc2ccncc2)cc1	0
CCn1c(-c2c(N)noc2C)nc2cnccc21	0
Fc1ccc(-c2nn3cccc(F)c3c2-c2ccncc2)cc1	0

Problem: Requested read-out %Inh, target or system CLK2, entry `CN1c2ccc(-c3ccc(C(N)=O)cc3)cc2-c2[nH]ncc2S1(=O)=O`
Solution: 70

Problem: Reported %Inh for CLK2, given `Cc1nccc(-c2c(-c3ccc(F)cc3)ncn2CCCN2CCOCC2)n1.Cl` ?
Solution: 5

Problem: Form field: %Inh recorded for `Nc1nccc(-c2c(-c3ccc(F)cc3)ncn2C2CCN(Cc3ccccc3)CC2)n1` with CLK2 (enter value)
Solution: 6

Problem: What is its %Inh for CLK2? Entry: `Cc1ccc(NC(=O)Nc2ccc(Cl)cc2)cc1-c1ccc(C(=O)Nc2ccncc2)cc1`
Solution: 0

---

# System: AKT2
# APPLIED_CONDITIONS: concentration: 1 μM, replicates: in singlicate; n = 1
Some compounds, each annotated with its measured %Inh.
// units = %; emit number, no label

Please review the following examples before continuing.
COMPOUND	ASSAYED_SYSTEM	OBSERVED_MEASUREMENT
CC(C)c1ccc(O)cc1Nc1ccnc2ccc(C(F)(F)F)cc12 [GW482059]	AKT2	0
COc1ccc(CSc2nnc(-c3ccc4c(c3)CCO4)o2)cc1	AKT2	0
CN1c2ccc(-c3ccc(C(N)=O)cc3)cc2-c2[nH]ncc2S1(=O)=O	AKT2	0
CNC(=O)c1ccc(C)c(-n2c(C)cc(OCc3ccc(F)cc3F)c(Br)c2=O)c1	AKT2	2

Shift focus to the following entry.
Problem: Any idea what %Inh came out for c1ccc(-c2ccnc3[nH]ccc23)cc1 [SB-693578] on AKT2?
Solution: 6

---

# Test system: PIP5K1C;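 also: kd values determined as follow-up on hits from a single-replicate KINOMEscan panel screen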
READOUT: Kd (µM)
Only the number, expressed in µM, is required.

Problem: Can you share its Kd? I mean this compound: `CN1c2ccc(-c3ccc(C(N)=O)cc3)cc2-c2[nH]ncc2S1(=O)=O`
Solution: 6.4

---

# Tested on: RIPK4
# APPLIED_CONDITIONS: concentration: 1 μM, replicates: in singlicate; n = 1
READOUT: %Inh (%)
Could you give me the number in %? Just the number is fine.

Some solved entries appear below for comparison.
COMPOUND	UNIT_LABEL	%Inh
CC(=O)c1cccc(NC(=O)NC2CCN(c3ccnc(Nc4ccc(F)cc4)n3)C2)c1 (stereo not shown) [GSK1379710]	%	15
Cn1cncc1C(=O)NC1CCN(c2ccnc(Nc3ccc(F)cc3)n2)C1 (stereo not shown) [GSK1379717]	%	33
CCn1c(-c2ccccc2)nc2cnccc21 [SB-733416]	%	41
CCc1ccc(-c2ccc3c(c2)-c2n[nH]cc2S(=O)(=O)N3C)cc1	%	0

// next entry
Problem: # lookup: %Inh of CCCCc1nn2ncccc2c1-c1ccnc(NC2CC2)n1 [GW684374]
Solution: 7

---

Recorded measurements of %Inh, one per entry
# Test system: TAOK1
# APPLIED_CONDITIONS: concentration: 1 μM, replicates: in singlicate; n = 1

MOLECULE	%Inh
COc1cccc(CNC(=O)NC2CCN(c3ccnc(Nc4ccc(F)cc4)n3)C2)c1 (stereo not drawn)	0%

Problem: What value of %Inh has been recorded for this entry: `FC(F)(F)c1ccccc1-c1cc(-c2c[nH]nc2-c2ccccn2)ccn1`
Solution: 0%

Problem: Fill in: %Inh of Cn1cncc1C(=O)NC1CCN(c2ccnc(Nc3ccc(F)cc3)n2)C1 (stereo not drawn) is ___
Solution: 0%

---

# Tested on: CDK3
# APPLIED_CONDITIONS: concentration: 1 μM, replicates: in singlicate; n = 1
Overview of reported %Inh across a group of compounds:
Your answer is read as %, so omit the unit and give the number.

COMPOUND	ASSAYED_SYSTEM	UNIT_LABEL	%Inh
CC(C)c1ccc(O)cc1Nc1ccnc2ccc(C(F)(F)F)cc12	CDK3	%	0
Cc1ccc(-c2nc(Nc3ccncc3)c3ccccc3n2)s1	CDK3	%	0
Cc1cnc(N)c(/C=C/c2cncc(C(=O)NCCc3ccc(Cl)cc3Cl)c2)c1.Cl	CDK3	%	6

Problem: Look up %Inh for this compound: `O=C(Nc1n[nH]c2nc(-c3cccs3)c(Br)cc12)C1CCCC1`
Solution: 67

Problem: Item under review: `Cc1ccc(NC(=O)c2ccc(Cl)cc2)cc1-c1ccc(C(=O)Nc2ccncc2)cc1` . Reported %Inh?
Solution: 6

Problem: Need %Inh of `O=C(Nc1n[nH]c2cc(-c3ccsc3)ccc12)C1CC1` , thanks.
Solution: 38

Problem: Would you mind telling me what %Inh value was observed for `COc1ccc2cc(-c3nc(-c4ccccc4C(C)C)[nH]c3-c3ccncc3)ccc2c1` ?
Solution: 13

Problem: Any idea what its %Inh is? The compound is `CN1c2ccc(-c3ccc(C(N)=O)cc3)cc2-c2[nH]ncc2S1(=O)=O`
Solution: 0

Problem: Data request, read-out %Inh, for O=C(Nc1n[nH]c2nc(-c3ccco3)c(Br)cc12)C1CCN(Cc2ccccc2)C1.O=C(O)[C@H](O)[C@@H](O)C(=O)O (stereo not drawn)
Solution: 0

Problem: Fill in the blank: the reported %Inh of COC(=O)C(NC(=O)NC1CCN(c2ccnc(Nc3ccc(F)cc3)n2)C1)c1ccccc1 (stereo not drawn) is ____.
Solution: 19

Problem: Can you look up the measured %Inh of `CSc1ccc(-c2nc3n(c2-c2ccncc2)CCC3)cc1` for me?
Solution: 0

---

Examples of molecules with documented %Inh follow.
# Tested on: TRKB
# APPLIED_CONDITIONS: concentration: 1 μM, replicates: in singlicate; n = 1

Past entries and their recorded results:
MOLECULE	%Inh
Cc1ccccc1-c1cc(-c2c[nH]nc2-c2ccccn2)ccn1	0%
O=c1cc(N2CCOCC2)nc2n(Cc3cccc(Cl)c3Cl)c3ccccc3n12	0%
Nc1ncnc2occ(-c3ccc4c(c3)CCN4C(=O)Cc3cc(F)ccc3F)c12	0%

Problem: Could you tell me which %Inh is on file for `CCc1ccc(-c2ccc3c(c2)-c2n[nH]cc2S(=O)(=O)N3C)cc1` ?
Solution: 0%

Problem: State the recorded %Inh for this entry: `CCn1c(-c2ccccc2)nc2cnccc21`
Solution: 0%

---

# key: entry, value: %Inh
# Test system: BTK
# APPLIED_CONDITIONS: concentration: 1 μM, replicates: in singlicate; n = 1
Your answer is read as %, so omit the unit and give the number.

Problem: Quick one: %Inh of `CNc1cc(-c2ccc3c(N)n[nH]c3c2)nc(N)n1` ?
Solution: 0

Problem: Quick one: %Inh for `Cn1cncc1-c1cc2c(Nc3ccc(OCc4ccccc4)cc3)ncnc2cn1` ?
Solution: 0

Problem: Param item = `CCn1c(-c2ccccc2)nc2cnccc21` ; retrieve measured %Inh.
Solution: 0

Problem: // query %Inh value for entry `Cc1nccc(-c2c(-c3ccc(F)cc3)ncn2CCCN2CCOCC2)n1.Cl`
Solution: 6

Problem: Dear colleague, I am looking for the recorded %Inh of the following molecule: `CN1c2ccc(-c3ccc(C(N)=O)cc3)cc2-c2[nH]ncc2S1(=O)=O`
Solution: 0

Problem: What value of measured %Inh is listed for `CC(C)c1cc(-c2ccc3c(N)n[nH]c3c2)nc(N)n1` ?
Solution: 0

Problem: What does the record list as %Inh for `O=C1NC(=O)C(c2ccc(Cl)cc2)=C1Nc1ccc(O)cc1` ?
Solution: 0

Problem: Which %Inh reading was recorded for the molecule `COc1nccc(-c2c(-c3ccc(F)cc3)ncn2CCCN2CCOCC2)n1` ?
Solution: 33

Problem: Form field: reported %Inh of `O=C(Nc1n[nH]c2nc(-c3cccs3)c(Br)cc12)C1CCCC1`
Solution: 26

Problem: Give its %Inh value. Item: `Fc1ccc(-c2nc3n(c2-c2ccncc2)CCS3)cc1`
Solution: 0
